src = patent US20240425491A1

- system name: human recombinant GABAAR containing α5β3γ2 subunits (benzodiazepine site) (Homo sapiens, UniProt P18507+P31644)
- Construct: expressed in transfected cells; host or cells: mouse L(tk−) cells, dexamethasone-inducible vector pMSGneo
- assay comment: In vitro radioligand binding assay (α5-GABAAR Ki)
- condition info: inhibition of [3H]Ro15-1788 binding, membranes of L(tk−) cells expressing human α5β3γ2; read-out: α5-GABAAR Ki
Measured Ki of individual entries
value type: Ki (nM)

>>> reported("COc1nc(-n2cnc3c2CCNC3)ccc1NC(=O)c1c(-c2ccccc2)noc1C.Cl [Example 178, hydrochloride]")
2
>>> reported("COc1nc(-c2ccc(N)nc2)ccc1NC(=O)c1c(-c2ccc(F)cc2)noc1C")
0.5
>>> reported("COc1nc(-c2cncc(N)n2)ccc1NC(=O)c1c(-c2ccccc2)noc1C")
6.9
>>> reported("COc1nc(-c2cnc(O)c(C(F)(F)F)c2)ccc1NC(=O)c1c(-c2ccccc2)noc1C")
13.5

* * *

- system name: human recombinant GABAAR containing α5β3γ2 subunits (benzodiazepine site) (Homo sapiens, UniProt P18507+P31644)
- Construct: expressed in transfected cells; host or cells: mouse L(tk−) cells, dexamethasone-inducible vector pMSGneo
- assay comment: In vitro radioligand binding assay (α5-GABAAR Ki)
- condition info: inhibition of [3H]Ro15-1788 binding, membranes of L(tk−) cells expressing human α5β3γ2; read-out: α5-GABAAR Ki
pKi: −log10 of the molar value. Counter-ions that a name gives are not always drawn.
value type: pKi

>>> reported("COc1nc(-c2ccc(C=O)cc2)ccc1NC(=O)c1c(-c2ccccc2)noc1C")
8.47
>>> reported("COc1nc(-c2ncn3c2CNCC3)ccc1NC(=O)c1c(-c2ccccc2)noc1C [Example 187, dihydrochloride]")
7.63
>>> reported("COc1nc(-c2c(C)n[nH]c2C)ccc1NC(=O)c1c(-c2ccccc2)noc1C")
7.47
>>> reported("COc1nc(-n2ccnc2)ccc1NC(=O)c1c(-c2ccccc2)noc1C")
8.54

* * *

- system name: human α5β3γ2L GABAA receptors in HEK293 cells (Homo sapiens, UniProt P18507+P31644)
- Construct: expressed in transfected cells
- assay comment: In vitro electrophysiological recording assay (α5-GABAAR relative efficacy), SyncroPatch
- Type: cell-based
- condition info: Conc 0.1 μM; GABA EC10-20
value type: α5-GABAAR Relative Efficacy (to DMCM), SyncroPatch

>>> reported("COc1nc(-c2cnc(C(F)(F)F)nc2)ccc1NC(=O)c1c(-c2ccccc2)noc1C [Example 53]")
"−0.83"
>>> reported("COc1nc(-c2ccc(CN3CC4(COC4)C3)nc2)ccc1NC(=O)c1c(-c2ccccc2)noc1C [Example 231]")
"−1.00"
>>> reported("COc1nc(-c2ccc(N)nn2)ccc1NC(=O)c1c(-c2ccccc2)noc1C [Example 127]")
"−0.57"
>>> reported("COc1nc(-c2cnc3n2CCN(C(C)=O)C3)ccc1NC(=O)c1c(-c2ccccc2)noc1C [Example 143]")
"−0.72"

* * *

- system name: human α5β3γ2 GABAARs in mouse L(tk−) cells (Homo sapiens, UniProt P18507+P31644)
- Construct: expressed in transfected cells; host or cells: mouse L(tk−) cells, dexamethasone-inducible vector pMSGneo
- Sequence (P31644 32-462): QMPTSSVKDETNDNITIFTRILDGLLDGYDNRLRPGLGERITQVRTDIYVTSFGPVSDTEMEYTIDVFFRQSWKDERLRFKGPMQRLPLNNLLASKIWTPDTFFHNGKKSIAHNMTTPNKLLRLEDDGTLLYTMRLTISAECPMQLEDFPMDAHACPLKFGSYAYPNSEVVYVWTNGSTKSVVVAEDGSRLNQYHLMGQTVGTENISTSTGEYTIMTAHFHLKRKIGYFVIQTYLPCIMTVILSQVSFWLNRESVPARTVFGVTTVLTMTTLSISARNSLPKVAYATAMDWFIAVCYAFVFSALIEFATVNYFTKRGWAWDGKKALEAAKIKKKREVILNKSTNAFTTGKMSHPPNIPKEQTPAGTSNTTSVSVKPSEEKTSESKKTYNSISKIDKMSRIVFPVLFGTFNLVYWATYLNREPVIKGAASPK
- Sequence (P28472 26-473 partner): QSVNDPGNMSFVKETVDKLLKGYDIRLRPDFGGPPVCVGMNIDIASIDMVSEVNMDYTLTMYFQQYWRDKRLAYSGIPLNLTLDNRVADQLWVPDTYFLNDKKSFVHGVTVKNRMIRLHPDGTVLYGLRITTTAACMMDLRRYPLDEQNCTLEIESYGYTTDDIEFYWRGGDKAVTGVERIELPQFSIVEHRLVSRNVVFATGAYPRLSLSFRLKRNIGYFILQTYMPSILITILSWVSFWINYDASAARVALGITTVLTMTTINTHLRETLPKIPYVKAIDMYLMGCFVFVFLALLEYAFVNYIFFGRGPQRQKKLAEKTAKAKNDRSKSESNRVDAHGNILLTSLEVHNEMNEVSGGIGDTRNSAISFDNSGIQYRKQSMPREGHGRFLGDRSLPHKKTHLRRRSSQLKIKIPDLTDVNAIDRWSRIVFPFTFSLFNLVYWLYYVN
- Sequence (P18507 40-475): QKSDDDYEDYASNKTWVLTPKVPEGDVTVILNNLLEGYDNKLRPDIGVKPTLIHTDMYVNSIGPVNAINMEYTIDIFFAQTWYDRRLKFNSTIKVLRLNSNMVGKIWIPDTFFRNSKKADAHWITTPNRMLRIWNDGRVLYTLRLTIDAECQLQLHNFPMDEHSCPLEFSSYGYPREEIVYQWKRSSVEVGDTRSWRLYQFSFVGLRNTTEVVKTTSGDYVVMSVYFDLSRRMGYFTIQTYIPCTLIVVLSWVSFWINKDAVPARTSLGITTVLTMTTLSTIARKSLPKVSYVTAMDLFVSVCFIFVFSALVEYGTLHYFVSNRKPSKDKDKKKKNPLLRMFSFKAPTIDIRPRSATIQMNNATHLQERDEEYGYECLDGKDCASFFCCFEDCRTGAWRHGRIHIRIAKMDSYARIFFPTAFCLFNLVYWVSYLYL
- assay comment: In vitro electrophysiological recording assay (α5-GABAAR relative efficacy), QPatch
- Format: cell-based
- condition info: Conc 0.1 μM; GABA EC10-20
Where a name gives a salt, the structure may show the parent alone.
Measured α5-GABAAR Relative Efficacy (to DMCM), Qpatch of individual entries
value type: α5-GABAAR Relative Efficacy (to DMCM), Qpatch

>>> reported("Cc1onc(-c2ccc(F)cc2)c1C(=O)Nc1ccc(-c2cnc3n2CCNC3)nc1OC(C)C.Cl")
"−0.38"
>>> reported("Cc1onc(-c2ccccc2)c1C(=O)Nc1ccc(-c2cnc(CN)nc2)nc1OC(C)C [Example 207, hydrochloride]")
"−0.56"
>>> reported("CNc1ncc(-c2ccc(NC(=O)c3c(-c4ccccc4)noc3C)c(OC)n2)cn1")
"−0.81"
>>> reported("CNCc1ccc(-c2ccc(NC(=O)c3c(-c4ccccc4)noc3C)c(OC)n2)cn1")
"−0.59"

* * *

- system name: human α5β3γ2 GABAARs in mouse L(tk−) cells (Homo sapiens, UniProt P18507+P31644)
- Construct: expressed in transfected cells; host or cells: mouse L(tk−) cells, dexamethasone-inducible vector pMSGneo
- assay comment: In vitro electrophysiological recording assay (α5-GABAAR relative efficacy), QPatch
- Type: cell-based
- condition info: Conc 3 μM; GABA EC10-20
Counter-ions that a name gives are not always drawn.
Assign Condition met to entries whose α5-GABAAR Relative Efficacy (to DMCM), Qpatch meets or exceeds -0.5; assign Condition not met to the rest.

>>> class_name("COc1nc(-c2ncco2)ccc1NC(=O)c1c(-c2ccccc2)noc1C")
"Condition met"
>>> class_name("COc1nc(-c2cn(CCN)cn2)ccc1NC(=O)c1c(-c2ccccc2)noc1C [Example 200, dihydrochloride]")
"Condition not met"
>>> class_name("CCn1nc(-c2nccs2)cc1-c1ccc(NC(=O)c2c(-c3ccccc3)noc2C)c(OC)n1")
"Condition not met"
>>> class_name("COc1nc(-c2cnoc2)ccc1NC(=O)c1c(C)nnn1-c1ccccc1")
"Condition not met"
>>> class_name("COc1nc(-c2nnc3n2CCNC3)ccc1NC(=O)c1c(-c2ccccc2)noc1C [Example 196, dihydrochloride]")
"Condition not met"
>>> class_name("COc1nc(-c2cnn(C(C)C)c2)ccc1NC(=O)c1c(-c2ccccc2)noc1C")
"Condition met"
>>> class_name("CNc1ncc(-c2ccc(NC(=O)c3c(C)nnn3-c3ccccc3)c(OC)n2)cn1")
"Condition not met"
>>> class_name("COc1nc(-c2ncn3c2CNCC3)ccc1NC(=O)c1c(-c2ccccc2)noc1C [Example 187, dihydrochloride]")
"Condition met"
>>> class_name("COc1nc(-n2ccnc2)ccc1NC(=O)c1c(-c2ccccc2)nnn1C")
"Condition not met"
>>> class_name("COc1nc(-c2cnn(-c3ccncc3)c2)ccc1NC(=O)c1c(-c2ccccc2)noc1C")
"Condition not met"
>>> class_name("CCOc1ncc(-c2ccc(NC(=O)c3c(C)nnn3-c3ccccc3)c(OC)n2)cn1")
"Condition not met"
>>> class_name("COc1cc(-c2cnn(C)c2)ccc1NC(=O)c1c(-c2ccccc2)noc1C")
"Condition not met"
>>> class_name("COc1nc(-c2c(C)nn(C)c2C)ccc1NC(=O)c1c(-c2ccccc2)noc1C")
"Condition met"
>>> class_name("COc1nc(-n2ccnc2)ccc1NC(=O)c1c(C)nnn1-c1ccccc1")
"Condition not met"
>>> class_name("COc1nc(-c2ncn3c2CN(C)CC3)ccc1NC(=O)c1c(-c2ccccc2)noc1C")
"Condition not met"
>>> class_name("COc1nc(-c2ccc(CO)nc2)ccc1NC(=O)c1c(C)nnn1-c1ccccc1")
"Condition not met"

* * *

Measured α5-GABAAR Relative Efficacy (to DMCM), Qpatch of individual entries
- system name: human α5β3γ2 GABAARs in mouse L(tk−) cells (Homo sapiens, UniProt P18507+P31644)
- Construct: expressed in transfected cells; host or cells: mouse L(tk−) cells, dexamethasone-inducible vector pMSGneo
- assay comment: In vitro electrophysiological recording assay (α5-GABAAR relative efficacy), QPatch
- Type: cell-based
- condition info: Conc 3 μM; GABA EC10-20
value type: α5-GABAAR Relative Efficacy (to DMCM), Qpatch

>>> reported("COc1nc(-c2cnn3ncccc23)ccc1NC(=O)c1c(-c2ccccc2)noc1C")
"−0.71"
>>> reported("COc1nc(-c2cnc(C3CC3)nc2)ccc1NC(=O)c1c(-c2ccccc2)noc1C")
"−0.81"
>>> reported("COc1nc(-c2cnc3c(c2)OCO3)ccc1NC(=O)c1c(-c2ccccc2)noc1C")
"−0.40"
>>> reported("COc1nc(-n2cnc(CN(C)C)c2)ccc1NC(=O)c1c(-c2ccccc2)noc1C")
"−0.27"
>>> reported("COc1nc(-c2ccc3nnn(C)c3c2)ccc1NC(=O)c1c(-c2ccccc2)noc1C")
"−0.45"
>>> reported("COc1nc(-c2ccc3c(c2)nc(C)n3C)ccc1NC(=O)c1c(-c2ccccc2)noc1C")
"−0.46"
>>> reported("COc1nc(-c2cccc3c2CNC3=O)ccc1NC(=O)c1c(-c2ccccc2)noc1C")
"−0.67"
>>> reported("COc1nc(-c2ccc3[nH]nc(N)c3c2)ccc1NC(=O)c1c(-c2ccccc2)noc1C")
"−0.50"
>>> reported("COc1nc(-c2nnco2)ccc1NC(=O)c1c(-c2ccccc2)noc1C")
"−0.79"
>>> reported("COc1nc(-c2ccc3[nH]c(=O)n(C)c3c2)ccc1NC(=O)c1c(-c2ccccc2)noc1C")
"−0.22"
>>> reported("COc1nc(-c2cnc(O)c(C(F)(F)F)c2)ccc1NC(=O)c1c(-c2ccccc2)noc1C")
"−0.66"
>>> reported("COc1nc(-c2cn(C)nc2C)ccc1NC(=O)c1c(-c2ccccc2)noc1C")
"−0.28"
>>> reported("COc1nc(-c2ccc(N)nn2)ccc1NC(=O)c1c(-c2ccccc2)noc1C")
"−0.72"
>>> reported("CNCc1ccc(-c2ccc(NC(=O)c3c(-c4ccccc4)noc3C)c(OC)n2)cc1.Cl")
"−0.68"
>>> reported("COc1nc(-c2ccc3c(c2)COC(=O)N3)ccc1NC(=O)c1c(-c2ccccc2)noc1C")
"−0.63"
>>> reported("COc1nc(-c2cnn(C3CCCCO3)n2)ccc1NC(=O)c1c(-c2ccccc2)noc1C (stereo not shown)")
"−0.51"
>>> reported("COc1nc(-c2cnc(C(N)=O)nc2)ccc1NC(=O)c1c(C)nnn1-c1ccccc1")
"−0.84"
>>> reported("COc1nc(-c2cnc(OCC(F)(F)F)nc2)ccc1NC(=O)c1c(-c2ccccc2)noc1C")
"−0.75"
>>> reported("COc1nc(-c2c[nH]c(=O)c(F)c2)ccc1NC(=O)c1c(C)nnn1-c1ccccc1")
"−0.65"
